Origin of measurements: patent US20240239798A1

Assay: Approximate solubility of amorphous 3-DM free base starting material in 27 solvent systems at RT
Assay type: physicochemical
Details: organic solvent or mixture, thermodynamic from solid, MeOH, RT
Assay readout: solubility

solubility for [2H][C@@]12C[C@H](/C(=C\OC)C(=O)OC)[C@H](CC)CN1CCc1c2[nH]c2cccc(OC)c12 [3-DM free base, 3-deuteromitragynine] ?
> 46 mg/mL

----------
Assay: Approximate solubility of amorphous 3-DM free base starting material in 27 solvent systems at RT
Format: physicochemical
Conditions: organic solvent or mixture, thermodynamic from solid, NMP, RT
Assay readout: solubility

Given [2H][C@@]12C[C@H](/C(=C\OC)C(=O)OC)[C@H](CC)CN1CCc1c2[nH]c2cccc(OC)c12 [3-DM free base, 3-deuteromitragynine] , state its recorded solubility.
> 44 mg/mL
